Below, each of the binders is paired with its reported MFI value.
target.under.test: monkey DLL3 on CHO-K1-cyno DLL3 cells (cynomolgus monkey)
Sequence (chain, as listed by the source limits assumed): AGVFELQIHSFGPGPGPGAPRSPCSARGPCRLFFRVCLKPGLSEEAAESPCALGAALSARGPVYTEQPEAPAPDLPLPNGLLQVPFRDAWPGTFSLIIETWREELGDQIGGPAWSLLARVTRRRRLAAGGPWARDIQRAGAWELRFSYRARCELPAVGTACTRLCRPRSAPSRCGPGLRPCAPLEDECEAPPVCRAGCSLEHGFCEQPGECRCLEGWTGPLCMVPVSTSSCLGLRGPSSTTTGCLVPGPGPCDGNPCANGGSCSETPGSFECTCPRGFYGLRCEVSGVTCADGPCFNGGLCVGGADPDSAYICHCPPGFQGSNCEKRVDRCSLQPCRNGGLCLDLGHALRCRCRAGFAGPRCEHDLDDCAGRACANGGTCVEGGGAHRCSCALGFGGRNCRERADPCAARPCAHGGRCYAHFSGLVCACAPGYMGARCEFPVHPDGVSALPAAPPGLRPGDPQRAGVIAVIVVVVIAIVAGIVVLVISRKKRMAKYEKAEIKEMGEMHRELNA
experiment: FACS, CHO-K1-cyno DLL3 cells, 0.0064 nM antibody

# binder, unit.descriptor, MFI
rows = [
    ("Hab015VL4VH5a-hFc (scFv, part only; not given: VL-VH linker and human IgG1 Fc, V domains shown, not shown: another chain or arm of the molecule; a dimerising Fc or GST; small tags and cut ends) VL: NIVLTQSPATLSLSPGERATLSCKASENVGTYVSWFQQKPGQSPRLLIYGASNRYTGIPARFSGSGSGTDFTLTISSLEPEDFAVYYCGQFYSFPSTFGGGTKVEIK VH: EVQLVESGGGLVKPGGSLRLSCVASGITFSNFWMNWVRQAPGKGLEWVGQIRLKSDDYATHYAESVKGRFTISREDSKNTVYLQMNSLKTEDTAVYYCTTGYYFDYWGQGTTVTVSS", "MFI", 164),
    ("Hab015VL5VH1a-hFc (scFv, part only; not given: scFv linker and human IgG1 Fc, V domains shown, not shown: another chain or arm of the molecule; a dimerising Fc or GST; small tags and cut ends) VL: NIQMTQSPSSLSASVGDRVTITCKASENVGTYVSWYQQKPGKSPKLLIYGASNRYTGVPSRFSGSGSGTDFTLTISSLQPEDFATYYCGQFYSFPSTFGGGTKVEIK VH: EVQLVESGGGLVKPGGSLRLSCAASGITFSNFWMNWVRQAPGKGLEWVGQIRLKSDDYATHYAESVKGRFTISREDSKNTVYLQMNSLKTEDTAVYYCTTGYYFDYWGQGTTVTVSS", "MFI", 178),
    ("Hab008L3H5-hFc (scFv, part only; not given: scFv linker and human IgG1 Fc, V domains shown, not shown: another chain or arm of the molecule; a dimerising Fc or GST; small tags and cut ends) VL: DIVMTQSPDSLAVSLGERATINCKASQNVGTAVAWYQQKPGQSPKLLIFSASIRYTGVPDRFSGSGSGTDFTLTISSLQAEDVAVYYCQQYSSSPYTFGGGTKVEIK VH: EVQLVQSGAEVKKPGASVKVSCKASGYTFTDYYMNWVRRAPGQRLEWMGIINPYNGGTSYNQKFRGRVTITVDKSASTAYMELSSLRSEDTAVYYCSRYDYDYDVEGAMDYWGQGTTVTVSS", "MFI", 142),
    ("Hab015VL5VH6a-hFc (scFv, part only; not given: scFv linker and human IgG1 Fc, V domains shown, not shown: another chain or arm of the molecule; a dimerising Fc or GST; small tags and cut ends) VL: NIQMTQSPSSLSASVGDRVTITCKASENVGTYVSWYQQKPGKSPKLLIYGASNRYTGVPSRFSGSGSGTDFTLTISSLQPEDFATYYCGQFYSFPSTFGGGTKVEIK VH: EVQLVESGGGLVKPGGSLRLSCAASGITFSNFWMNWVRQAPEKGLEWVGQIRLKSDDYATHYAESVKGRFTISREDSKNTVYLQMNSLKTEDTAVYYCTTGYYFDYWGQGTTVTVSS", "MFI", 169),
    ("Hab008L3H2a-hFc (scFv, part only; not given: VL-VH linker and human IgG1 Fc, V domains shown, not shown: another chain or arm of the molecule; a dimerising Fc or GST; small tags and cut ends) VL: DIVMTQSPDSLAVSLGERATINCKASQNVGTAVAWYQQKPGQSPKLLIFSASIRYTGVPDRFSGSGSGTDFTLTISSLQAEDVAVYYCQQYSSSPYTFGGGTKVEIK VH: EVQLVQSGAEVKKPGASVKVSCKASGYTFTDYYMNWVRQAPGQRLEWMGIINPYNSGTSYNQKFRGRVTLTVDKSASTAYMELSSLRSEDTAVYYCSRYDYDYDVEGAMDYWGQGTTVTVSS", "MFI", 148),
]
